tested_target: soybean lipoxygenase isoenzyme-1 (SLOX-1) (Glycine max, UniProt P08170)
Construct: purchased Sigma Chemical, Co. (St. Louis, MO, USA)
Sequence (P08170 whole entry): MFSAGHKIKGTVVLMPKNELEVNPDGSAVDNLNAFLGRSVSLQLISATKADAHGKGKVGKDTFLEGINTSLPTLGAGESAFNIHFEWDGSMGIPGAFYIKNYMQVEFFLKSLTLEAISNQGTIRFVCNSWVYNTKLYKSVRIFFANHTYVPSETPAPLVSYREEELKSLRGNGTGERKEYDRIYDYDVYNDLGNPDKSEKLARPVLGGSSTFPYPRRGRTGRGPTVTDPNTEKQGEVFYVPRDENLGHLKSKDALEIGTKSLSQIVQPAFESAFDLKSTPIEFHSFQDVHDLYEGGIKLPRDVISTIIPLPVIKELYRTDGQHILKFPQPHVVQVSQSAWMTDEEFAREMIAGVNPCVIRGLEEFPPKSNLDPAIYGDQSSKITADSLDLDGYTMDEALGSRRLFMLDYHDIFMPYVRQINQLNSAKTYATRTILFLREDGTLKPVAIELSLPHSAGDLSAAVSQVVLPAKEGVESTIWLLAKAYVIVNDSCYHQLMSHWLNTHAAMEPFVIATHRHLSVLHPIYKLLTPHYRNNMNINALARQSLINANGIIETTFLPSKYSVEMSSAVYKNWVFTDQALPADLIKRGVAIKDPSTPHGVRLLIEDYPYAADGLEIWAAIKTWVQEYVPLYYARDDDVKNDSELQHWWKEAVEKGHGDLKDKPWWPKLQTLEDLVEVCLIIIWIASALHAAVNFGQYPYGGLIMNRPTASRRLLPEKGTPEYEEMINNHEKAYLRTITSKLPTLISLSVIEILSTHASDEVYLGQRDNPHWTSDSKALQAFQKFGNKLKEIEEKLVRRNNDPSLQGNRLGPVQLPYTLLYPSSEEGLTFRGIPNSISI
assay_procedure: Inhibition of soybean lipoxygenase in vitro
Assay type: biochemical
test_parameters: soybean LOX, pH 9.00, ± SD; read-out: LOX Inh. IC50
quantity_name: IC50 (µM)

- CN(C)c1ccc(-c2cn(C(=O)/C=C/c3ccccc3)cc2C(=O)c2ccc(Cl)cc2)cc1 [compound 6]: 27.5
- CN(C)c1ccc(-c2cn(C(=O)/C=C/c3ccccc3)cc2C(=O)c2cccs2)cc1 [compound 7]: 35
- CN(C)c1ccc(-c2c[nH]cc2C(=O)c2ccc(Cl)cc2)cc1 [compound 2]: 7.5
- CN(C)c1ccc(/C=C/c2c[nH]cc2C(=O)c2ccc(Cl)cc2)cc1 [compound 1]: 51.5
- CN(C)c1ccc(/C=C/c2cn(C(=O)/C=C/c3ccccc3)cc2C(=O)c2ccccc2)cc1 [compound 5]: 30
